experiment: physchem
test parameters: organic solvent or mixture
measured quantity: solubility (mg/mL)

molecule	measured quantity	readout number
CCOc1c(N)c2c(c(OCC)c1OCC)C(C1c3c(cc4c(c3OC)OCO4)CCN1C)OC2=O (stereo not shown)	solubility	50
